tested on: Dd2; assay: qHTS profiling for inhibitors of Plasmodium falciparum proliferation (AID 504749); also: nearly all actives have a fitted effect of over 60% in size; settings: P. falciparum in erythrocytes, SYBR Green DNA, 72 h; series mostly up to 28.7 µM
Results filed as inconclusive are left out. The source made the active and inactive calls. Calls follow the shape of the dose curve; as a rule, active = well fitted inhibition curve with a large enough effect; inconclusive = small, poorly fitted or top-dose-only effect; inactive = flat fitted curve, though single readings scatter.
Classes used: active, inactive

MOLECULE | TARGET_DESC | CLASSIFICATION
CCOC(=O)Nc1ccc(NCc2ccc(F)cc2)nc1N | Dd2 | active
CN1C(C(=O)Nc2ccccn2)=C(O)c2ccccc2S1(=O)=O | Dd2 | inactive
Nc1c2c(nc3ccccc13)CCCC2 | Dd2 | inactive
CCCNCC(O)COc1ccccc1C(=O)CCc1ccccc1 (configuration not stated) | Dd2 | active
Nc1nc2c(ncn2COC(CO)CO)c(=O)[nH]1 | Dd2 | inactive
NS(=O)(=O)c1cc2c(cc1Cl)NCNS2(=O)=O | Dd2 | inactive
O=c1c(-c2ccc(O)cc2)coc2cc(O)cc(O)c12 | Dd2 | inactive
O=C1N(c2ccccc2)c2ccccc2C1(Cc1ccncc1)Cc1ccncc1 | Dd2 | inactive
CC(=O)OCC(CCn1cnc2cnc(N)nc21)COC(C)=O | Dd2 | inactive
O=C(c1ccc(OCCN2CCCCC2)cc1)c1c(-c2ccc(O)cc2)sc2cc(O)ccc12 | Dd2 | active
OCCN1CCN(CCCN2c3ccccc3Sc3ccc(C(F)(F)F)cc32)CC1 | Dd2 | active
Cn1ccc2cc3c(cc21)CCN3C(=O)Nc1cccnc1 | Dd2 | inactive

###

experiment: High-throughput drug toxicity screening in the BPDCN cell line Cal-1 (AID 1224825); conditions: Cal-1 BPDCN cell viability, qHTS; at 45.8 µM (top of the series) unless noted;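 also: cells exposed to compounds for 48 h; 100% = DMSO and 0% = bortezomib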
REPORTED_METRIC: viability (% of control) (%)

COMPOUND | REPORTED_METRIC | SCALE_UNIT | ENDPOINT_VALUE
CN1CCC(=C2c3ccccc3CC(=O)c3sccc32)CC1 | viability (% of control) | % | 23.6
C[C@@H]1CC(=O)NN=C1c1ccc(NN=C(C#N)C#N)cc1 | viability (% of control) | % | 5.81
COC(=O)Nc1nc2ccc(C(=O)c3cccs3)cc2[nH]1 | viability (% of control) | % | 10.7
O=C(c1ccc(OCCN2CCCCC2)cc1)c1c(-c2ccc(O)cc2)sc2cc(O)ccc12 | viability (% of control) | % | 40.4
C[C@H]1c2cccc(O)c2C(O)=C2C(=O)[C@]3(O)C(O)=C(C(N)=O)C(=O)[C@@H](N(C)C)[C@@H]3[C@@H](O)[C@@H]21 | viability (% of control) | % | 19.9
O=C1Cc2cc(CCN3CCN(c4nsc5ccccc45)CC3)c(Cl)cc2N1 | viability (% of control) | % | 94.5
Clc1ccccc1C(c1ccccc1)(c1ccccc1)n1ccnc1 | viability (% of control) | % | 74
O=C(CCCN1CCC(O)(c2ccc(Cl)cc2)CC1)c1ccc(F)cc1 | viability (% of control) | % | 48.3
COc1ccc2[nH]cc(CCNC(C)=O)c2c1 | viability (% of control) | % | 65.3
NC12CC3CC(CC(C3)C1)C2 | viability (% of control) | % | 9.3
CC(C)NCC(O)c1ccc(O)c(O)c1 (configuration not stated) | viability (% of control) | % | 16
CC#C[C@]1(O)CC[C@H]2[C@@H]3CCC4=CC(=O)CCC4=C3[C@@H](c3ccc(N(C)C)cc3)C[C@@]21C | viability (% of control) | % | 5.97
CC12CC3CC(C)(C1)CC(N)(C3)C2 | viability (% of control) | % | 17.7
O=C1N(c2ccccc2)c2ccccc2C1(Cc1ccncc1)Cc1ccncc1 | viability (% of control) | % | 130
CN(C)CCCN1c2ccccc2CCc2ccc(Cl)cc21 | viability (% of control) | % | 11.8
O=C1c2c(O)ccc(O)c2C(=O)c2c(NCCNCCO)ccc(NCCNCCO)c21 | viability (% of control) | % | 2.98
Cn1ccc2cc3c(cc21)CCN3C(=O)Nc1cccnc1 | viability (% of control) | % | 69.5
Cc1ccccc1N1C(=O)c2cc(S(N)(=O)=O)c(Cl)cc2NC1C (configuration not stated) | viability (% of control) | % | 108
CNCCCC12CCC(c3ccccc31)c1ccccc12 | viability (% of control) | % | 13.7
CCCCc1oc2ccccc2c1C(=O)c1cc(I)c(OCCN(CC)CC)c(I)c1 | viability (% of control) | % | 8.13
Cc1cn([C@H]2C[C@H](N=[N+]=[N-])[C@@H](CO)O2)c(=O)[nH]c1=O | viability (% of control) | % | 78.5

Measured values drawn from PubChem BioAssay (NCATS) for this set.
